Data provenance: PubChem BioAssay (NCI)

Test system: HT29 colon
Test: NCI tumour cell line growth inhibition, 48 h; in the data active = GI50 below about 0.43 µM; inactive = the rest
Outcomes: True (active), False (inactive)

- compound: "O=c1c2cc(F)ccc2sc2c(N3CCNCC3)nc3ccc(F)cc3c12"
  class: "False"
- compound: "COc1ccc2c(=O)cc(-c3ccccc3)[nH]c2c1"
  class: "True"
- compound: "S=c1snc2n1CCN2"
  class: "False"
- compound: "O=C(/C=C/C12c3ccccc3C(c3ccccc31)C1C(=O)NC(=O)C12)c1ccc(Cl)cc1Cl (centres undefined)"
  class: "False"
- compound: "Nc1ccccc1C#C/C=C\\C#Cc1ccc(OCCCNC(=O)c2cc3ccccc3[nH]2)cc1"
  class: "False"
- compound: "CCC(O)c1ccc(Br)cc1NC(=O)c1cccc(Cl)c1 (centres undefined)"
  class: "False"
- compound: "CS(=O)(=O)CCNCc1cc(-c2cc3c(Nc4ccc(OCc5cccc(F)c5)c(Cl)c4)ncnc3s2)cs1"
  class: "False"
- compound: "C=CCn1c(C)nc2ccc(Nc3nc(Nc4ccc(F)cc4)nc4ccccc34)cc21"
  class: "False"
- compound: "O=S(=O)(NC1=NCCN1C(=S)SN1CCn2c1nsc2=S)c1cccc2ccccc12"
  class: "False"
- compound: "COc1cccc(/C(C#N)=C/c2nc3c(N4CCOCC4)nc(Cl)nc3n2C)c1"
  class: "True"
- compound: "COc1cc2nc(SCc3cc(OC)c(OC)c(OC)c3)n(Cc3ccccc3)c(=O)c2cc1OC"
  class: "False"
- compound: "CC[C@H](Nc1ncnc2nc[nH]c12)c1nc2cccc(F)c2c(=O)n1-c1ccccc1"
  class: "False"
- compound: "Cn1c(C(=O)c2ccncc2)cc2ccccc21"
  class: "False"
- compound: "CC[n+]1oc(C(=O)c2ccc(Cl)cc2)c(-c2ccccc2)c1-c1ccccc1.[Cl][Fe]([Cl])([Cl])[Cl]"
  class: "False"
